experimentSummary: Toxicity liver stage against HepG2, at 10uM
Assay type: cell-based
Design: test concentration 10 uM, cell line HepG2-A16-CD81EGFP
assaySetup: human, HepG2-A16-CD81EGFP cells; read-out: INHIBITION
readoutKind: cytotoxicity at 10 µM (%)
Kindly answer with a numeric value in %, unit omitted.

For the compound `Cc1nccc([C@@H]2C[C@H]3CN(S(=O)(=O)c4ccccc4)C[C@H]3O2)n1` , what cytotoxicity at 10 µM is on record?
1.32

Which cytotoxicity at 10 µM value is on record for `CCn1nc(C)c(CNCCn2cc(C)cn2)c1C` ?
-4.91

Entry CCn1cc(S(=O)(=O)NCC(OC)c2cccc(Cl)c2)cn1 (stereo unspecified) : reported cytotoxicity at 10 µM = ?
10.1

GET /values?readout=cytotoxicity at 10 µM&item= CC(NCC1(N(C)C)CCOCC1)c1ccc(SC(F)F)cc1 (stereo unspecified)
-0.79

Which cytotoxicity at 10 µM is reported for this compound? CCC(CC)C(O)CNC(=O)Nc1cc(C)nn1C (stereo unspecified)
-11

Recorded cytotoxicity at 10 µM of `COc1c(C)cnc(CN(C)C(=O)c2cccc(NC(N)=O)c2)c1C` , please.
-8.94

If you can, please state the reported cytotoxicity at 10 µM value of Cn1c(SCC(=O)NC(C)(C#N)C2CC2)nc2ccccc21 (stereo unspecified) .
-2.15

If you can, please state the reported cytotoxicity at 10 µM value of COC1COC2(CCN(c3ccc(C#N)cc3)CC2)C1 (stereo unspecified) .
-79.6

If you can, please state the reported cytotoxicity at 10 µM value of Cn1nccc1C(=O)N1CCC2(CC1)COC(COc1ccccn1)C2 (stereo unspecified) .
-7.18

Field request: cytotoxicity at 10 µM | item: `O=C(Cn1cccc2cc(-c3ccc(F)cc3)nc1-2)N1CCC(O)CC1`
-7.74

Can you look up the measured cytotoxicity at 10 µM of `CN(C)C(=O)C1(Oc2ccc(Cl)cc2)CCNCC1` for me?
13.7

* * *

experimentSummary: Toxicity liver stage against HepG2, at 10uM
Type: cell-based
Set-up: test concentration 10 uM, cell line HepG2-A16-CD81EGFP
assaySetup: human, HepG2-A16-CD81EGFP cells; read-out: INHIBITION
readoutKind: cytotoxicity at 10 µM (%)
Just the number please, in %, no unit attached.

Bench note: what cytotoxicity at 10 µM did CCCC(C)CS(=O)(=O)NCc1cccnc1N(C)C (centres undefined) show?
2.96

What does the data say about its cytotoxicity at 10 µM? Entry: O=C(CCc1cccc(Cl)c1Cl)N1CCOCC1c1ncon1 (centres undefined)
-2.33

Query: cytotoxicity at 10 µM; subject: Cc1nn(C)c(C)c1CC(=O)N1CCCC(CNS(C)(=O)=O)C1 (centres undefined)
3.3

Bench note: what cytotoxicity at 10 µM did `COCCN1C(=O)[C@@H]2CC[C@H]1CN(S(=O)(=O)c1ccc(C#N)cc1)C2` show?
-2.59

What measured cytotoxicity at 10 µM goes with `CCn1cnnc1CNC(=O)c1ccc(Cl)cc1I` ?
-6.31

Any idea what its cytotoxicity at 10 µM is? The compound is `CN(C)[C@@H]1CO[C@H](CNC(=O)CC(C)(C)C)[C@H]1O`
-10.8

What value of cytotoxicity at 10 µM has been reported for the following compound? `CCC(=O)N1CCC[C@]2(C(=O)N(C)C)CN(c3ccccn3)C[C@@H]2C1`
11.5

What does the data say about its cytotoxicity at 10 µM? Entry: `COc1cc(C(F)(F)F)sc1C(=O)O`
-3.29

Quick check: cytotoxicity at 10 µM of `OCC1(NCc2cnc(-c3ccsc3)s2)CCOCC1` ?
-3.1

Param item = `CCS(=O)(=O)N1CC[C@H]2O[C@@H](c3nnc(C)o3)CC[C@H]21` ; retrieve measured cytotoxicity at 10 µM.
-63.7

What cytotoxicity at 10 µM value was documented for this compound, `CCN(CCO)C[C@@H]1CN(c2cc(C(F)(F)F)cc(C)n2)C[C@@H]1CO` ?
-1.7

Form field: reported cytotoxicity at 10 µM of `Cc1nn(C)c(C)c1CC(=O)N1CCCN(c2cccnn2)CC1`
-2.1

Request the reported cytotoxicity at 10 µM associated with `COc1c(CNCc2ccnc(N3CCCC3)c2)c(C)nn1C`
4.31

Which cytotoxicity at 10 µM is listed for `CCOC(=O)c1cc2n(n1)CCCO2` ?
3.86

Entry under review: `CN(C)c1nc2ncc(Cl)cc2cc1C#N` . Reported cytotoxicity at 10 µM?
9.54

Query: cytotoxicity at 10 µM; subject: `CCN(C)c1cc(CNC(=O)CNC(=O)CC2CCCCC2)ccn1`
2.34

Form field: reported cytotoxicity at 10 µM of `Cc1cnc(N2CCC3(CC2)CN(Cc2cccs2)CCO3)nc1`
16.2

Give its cytotoxicity at 10 µM value. Item: `CCCNC(=O)CCNC(=O)c1sc2ccc(F)cc2c1C`
3.33

Given the entry O=C(CC1CC1)N1CCC2(COCc3cnc(N4CCOCC4)nc32)C1 (centres undefined) , report its measured cytotoxicity at 10 µM.
-82.1

Quick one: cytotoxicity at 10 µM of `OCCNc1cc(-c2nccnc2N2CCCC2)c2cc[nH]c2n1` ?
-7.57

What cytotoxicity at 10 µM value was documented for this compound, Cc1csc(C2CCCCN2C(=O)CN(C)C(C)C)n1 (centres undefined) ?
-3.62

Fill blank: measured cytotoxicity at 10 µM of the compound `CCN(Cc1ccco1)C(=O)Nc1cc(C(F)(F)F)c[nH]c1=O` is ____.
-2.6

Reported cytotoxicity at 10 µM for CC(C)COC(C)C(=O)N1CCN(S(C)(=O)=O)CC1 (centres undefined) : what is it?
-5.38

So what's the measured cytotoxicity at 10 µM for this one? CNc1cc(N2CCCC2CNCc2c[nH]nc2C(C)(C)C)ncn1 (centres undefined)
7.91

* * *

Please respond with reported cytotoxicity at 10 µM for every item in the list.
experimentSummary: Toxicity liver stage against HepG2, at 10uM
Format: cell-based
Design: test concentration 10 uM, cell line HepG2-A16-CD81EGFP
assaySetup: human, HepG2-A16-CD81EGFP cells; read-out: INHIBITION
Quick reminder: number only, in %, skip the unit.

// lookup cytotoxicity at 10 µM for COC(=O)C(NC(=O)c1ccc(NC2CC2)nc1)c1ccccc1 (stereo unspecified)
-9.88

Request the reported cytotoxicity at 10 µM associated with `Cc1nc(N2CCN(S(C)(=O)=O)CC2)cc(-n2cnc(C)c2C)n1`
-5.83

If you can, please state the reported cytotoxicity at 10 µM value of `O=C(N[C@@H]1CN(Cc2ccoc2)C[C@@H]2CCCO[C@@H]21)C1CCC1` .
-95.8

// cytotoxicity at 10 µM lookup, key: NC(=O)COc1ccc(CN2CCC(O)(CN3CCCCC3)C2)cc1Cl (stereo unspecified)
-1.73

Entry under review: O=C(NCC(F)(F)F)NC1CCCc2c1cnn2CCO (stereo unspecified) . Reported cytotoxicity at 10 µM?
4.44

Reported cytotoxicity at 10 µM for Cc1nc(C)n(CC2CCCN(c3ncnc4[nH]ccc34)C2)n1 (stereo unspecified) : what is it?
12.8

* * *

experimentSummary: Toxicity liver stage against HepG2, at 10uM
Type: cell-based
Parameters: test concentration 10 uM, cell line HepG2-A16-CD81EGFP
assaySetup: human, HepG2-A16-CD81EGFP cells; read-out: INHIBITION
readoutKind: cytotoxicity at 10 µM (%)
The reply should be a number in %, with the unit left off.

For `Cc1cc(C)n(-c2ccnc(N3CCC(C(=O)N4CCCC4)CC3)n2)n1` , what is its reported cytotoxicity at 10 µM?
-9.87

Request the reported cytotoxicity at 10 µM associated with CC(NS(C)(=O)=O)C(=O)N1CCCN(Cc2cscn2)CC1 (centres undefined)
-5.95

Value lookup for cytotoxicity at 10 µM; key = `CNc1cc(CNC(=O)c2ccccc2OC)nc(-c2ccncc2)n1`
-13.7

Consider the compound CNc1cncc(C2CCCN2S(=O)(=O)c2ccc(F)cc2)n1 (centres undefined) and give its measured cytotoxicity at 10 µM.
-3.21

Look up cytotoxicity at 10 µM for this compound: Cc1ccc(C(N)c2cccs2)cc1 (centres undefined)
-0.367

What measured cytotoxicity at 10 µM goes with COC(=O)c1ccc(N2CCN(C(=O)c3ccco3)C(C)C2)cc1 (centres undefined) ?
-8.15

// returns reported cytotoxicity at 10 µM for input `O=C(NCCOc1ncc(Cl)cc1Cl)c1ccncc1`
7.18

State the recorded cytotoxicity at 10 µM for this entry: Cc1nn(-c2ccc(C(=O)O)cc2)c2c1C(c1cccs1)SCC(=O)N2 (centres undefined)
-0.607

Would you mind telling me what cytotoxicity at 10 µM value was observed for O=S(=O)(Cc1ccc(F)cc1)N1CCN(CC(O)C2CC2)CC1 (centres undefined) ?
4.77

Which cytotoxicity at 10 µM reading was recorded for the compound `O=C(NCCNC(=O)C1CC1)c1cnc(-c2ccccc2)nc1` ?
12.3

Would you kindly share the measured cytotoxicity at 10 µM for `CCc1nnc2n1CCN(CC(=O)Nc1cc(C)nn1C)C2` ?
6.98

Value lookup for cytotoxicity at 10 µM; key = `CCc1ncc2c(n1)CN(C(=O)CCCc1ccc(OC)cc1)C2`
-7.32

# query: cytotoxicity at 10 µM of entry `COc1ccc(-c2csc3c2c(N)nc(=O)n3CCCN(C)C)cc1`
-54

Return reported cytotoxicity at 10 µM; argument: `CC(C)n1cc(CN2CCCN(C(=O)COC3CCCC3)CC2)cn1`
-15.5

Given the entry `CCCS(=O)(=O)N1CCC2(CCC(=O)N(CCc3cccnc3)C2)CC1` , report its measured cytotoxicity at 10 µM.
-4.92

Record request: cytotoxicity at 10 µM value, item `O=C(NCC1CCOCC1)[C@H]1C[C@@H]2CCN(Cc3ccccc3)C[C@H]2O1`
1.03

Suppose we examine the compound `Cc1nc(NC(=O)c2c(-n3cnnn3)sc3c2CCCC3)sc1C` ; what cytotoxicity at 10 µM value has been reported?
2.03

Quick one: cytotoxicity at 10 µM of `CCc1ccccc1OCCNCCc1c[nH]cn1` ?
4.69

I have this compound here, `CC(=O)NC[C@]1(O)CCN(C(=O)c2ccc3c(c2)OCO3)C[C@H]1O` , and I need its recorded cytotoxicity at 10 µM.
-9.91

Query (compound): Clc1ccc(CN2CCC(C3CCN(Cc4cccnc4)CC3)C2)cc1 (centres undefined) ; field requested: cytotoxicity at 10 µM
11.3

May I ask what cytotoxicity at 10 µM has been recorded for `FC(F)Oc1ccc(CNCc2cc(Cl)c3c(c2)OCO3)cc1` ?
2.63

Name the recorded cytotoxicity at 10 µM for `Cc1cc2cc(C(=O)N3CC[C@H](O)[C@]4(CCCO4)C3)ccc2o1` .
1.01

Could you tell me which cytotoxicity at 10 µM is on file for Cc1cnn(C2CN(CC(O)c3ccc(F)cc3)C2)c1 (centres undefined) ?
11.9

Which measured cytotoxicity at 10 µM value corresponds to `CC(C)(C)c1ccc(C2(C(=O)NCCS(N)(=O)=O)CC2)cc1` ?
0.515

Ref: ChEMBL document CHEMBL4513216
